FYI, the data here is from ChEMBL document CHEMBL4382199.

Tested on: Klebsiella pneumoniae
assay.protocol: Inhibition of LpxC in Klebsiella pneumoniae ATCC 43816 assessed as antibacterial activity after 20 hrs in presence of vancomycin by CLSI protocol-based microdilution assay
Provide the reported log10 of MIC of each item.
Form field - Quantity: MIC; Unit: µg/mL; Scale: log10

q: Please supply the value of reported log10 of MIC for the item `CC#Cc1ccc(N2C[C@H](C[C@](C)(C(=O)NO)S(C)(=O)=O)OC2=O)cc1`
a: 0.60

q: Please supply the value of reported log10 of MIC for the item `CC(C)(O)[C@H]1C[C@H](C#Cc2ccc(N3C[C@H](C[C@](C)(C(=O)NO)S(C)(=O)=O)OC3=O)cc2)C1`
a: 0.00

q: Please supply the value of reported log10 of MIC for the item `C[C@@](C[C@H]1CN(c2ccc(C#CC3CC3)cc2)C(=O)O1)(C(=O)NO)S(C)(=O)=O`
a: -0.60

q: Please supply the value of reported log10 of MIC for the item `CCCc1ccc(N2C[C@H](C[C@](C)(C(=O)NO)S(C)(=O)=O)OC2=O)cc1`
a: 0.90

q: Please supply the value of reported log10 of MIC for the item `CC#Cc1ccc(C2=NO[C@@H](C[C@](C)(C(=O)NO)S(C)(=O)=O)C2)cc1`
a: 0.30

q: Please supply the value of reported log10 of MIC for the item `C[C@@](C[C@H]1CC(c2ccc(C#CC3CC3)cc2)=NO1)(C(=O)NO)S(C)(=O)=O`
a: -0.90

###

assay.protocol: Solubility of the compound at pH 7.4
Assay type: physicochemical
condition.label: buffer
measurement.label: solubility (µg/mL)
Numeric only. Scale: µg/mL

q: Please supply the value of reported solubility for the item `C[C@@](C[C@H]1CN(c2ccc(C#CC3CC3)cc2)C(=O)O1)(C(=O)NO)S(C)(=O)=O`
a: 126

###

assay.protocol: Clearance in mouse at 60 mg/kg, iv
Assay type: ADME, organism-based
condition.label: in vivo
measurement.label: clearance (mL/min/kg)
Numeric only. Scale: mL/min/kg

q: Please supply the value of reported clearance for the item `C[C@@](C[C@H]1CN(c2ccc(C#CC3CC3)cc2)C(=O)O1)(C(=O)NO)S(C)(=O)=O`
a: 49

###

assay.protocol: Protein binding in mouse plasma
Type: ADME, cell-free
condition.label: read-out: PPB (converted)
measurement.label: fraction unbound
Number only, please.

q: Please supply the value of reported fraction unbound for the item `C[C@@](C[C@H]1CN(c2ccc(C#CC3CC3)cc2)C(=O)O1)(C(=O)NO)S(C)(=O)=O`
a: 0.13

###

Provide the reported logD of each item.
assay.protocol: Lipophilicity, log D of the compound at pH 7.4
Type: physicochemical
condition.label: buffer
Number only, please.

q: Please supply the value of reported logD for the item `C[C@@](C[C@H]1CN(c2ccc(C#CC3CC3)cc2)C(=O)O1)(C(=O)NO)S(C)(=O)=O`
a: 1.9

q: Please supply the value of reported logD for the item `C/C=C/c1ccc(N2C[C@H](C[C@](C)(C(=O)NO)S(C)(=O)=O)OC2=O)cc1`
a: 1.4

q: Please supply the value of reported logD for the item `CCCc1ccc(C2=NO[C@@H](C[C@](C)(C(=O)NO)S(C)(=O)=O)C2)cc1`
a: 1.7

q: Please supply the value of reported logD for the item `C[C@@](C[C@H]1CN(c2ccc(C3CC3)cc2)C(=O)O1)(C(=O)NO)S(C)(=O)=O`
a: 1.5

q: Please supply the value of reported logD for the item `CC(C)(O)[C@H]1C[C@H](C#Cc2ccc(N3C[C@H](C[C@](C)(C(=O)NO)S(C)(=O)=O)OC3=O)cc2)C1`
a: 1.6

q: Please supply the value of reported logD for the item `C[C@@](C[C@H]1CN(c2ccc(Br)cc2)C(=O)O1)(C(=O)NO)S(C)(=O)=O`
a: 1

q: Please supply the value of reported logD for the item `C[C@@](C[C@H]1CC(c2ccc(Br)cc2)=NO1)(C(=O)NO)S(C)(=O)=O`
a: 1.2

q: Please supply the value of reported logD for the item `C[C@@](C[C@H]1CN(c2ccc(-c3ccccc3)cn2)C(=O)O1)(C(=O)NO)S(C)(=O)=O`
a: 1.8

q: Please supply the value of reported logD for the item `CC#Cc1ccc(C2=NO[C@@H](C[C@](C)(C(=O)NO)S(C)(=O)=O)C2)cc1`
a: 1.4

q: Please supply the value of reported logD for the item `C[C@@H](O)Cc1ccc(-c2ccc(N3C[C@H](C[C@](C)(C(=O)NO)S(C)(=O)=O)OC3=O)cc2)cc1`
a: 1.2

q: Please supply the value of reported logD for the item `C[C@@](C[C@H]1CN(c2ccc(-c3ccccc3)cc2)C(=O)O1)(C(=O)NO)S(C)(=O)=O`
a: 2.3

q: Please supply the value of reported logD for the item `C/C=C/c1ccc(C2=NO[C@@H](C[C@](C)(C(=O)NO)S(C)(=O)=O)C2)cc1`
a: 2

q: Please supply the value of reported logD for the item `CCCc1ccc(N2C[C@H](C[C@](C)(C(=O)NO)S(C)(=O)=O)OC2=O)cc1`
a: 1.6

q: Please supply the value of reported logD for the item `CC#Cc1ccc(N2C[C@H](C[C@](C)(C(=O)NO)S(C)(=O)=O)OC2=O)cc1`
a: 1.4

q: Please supply the value of reported logD for the item `C[C@@](C[C@H]1CC(c2ccc(C#CC3CC3)cc2)=NO1)(C(=O)NO)S(C)(=O)=O`
a: 2.2

###

Provide the reported MIC of each item.
System: Klebsiella pneumoniae
assay.protocol: Inhibition of LpxC in Klebsiella pneumoniae ATCC 43816 assessed as antibacterial activity after 20 hrs in presence of rifampicin by CLSI protocol-based microdilution assay
Numeric only. Scale: µg/mL

q: Please supply the value of reported MIC for the item `CC#Cc1ccc(N2C[C@H](C[C@](C)(C(=O)NO)S(C)(=O)=O)OC2=O)cc1`
a: 0.25

q: Please supply the value of reported MIC for the item `C[C@@](C[C@H]1CC(c2ccc(C#CC3CC3)cc2)=NO1)(C(=O)NO)S(C)(=O)=O`
a: 0.03

q: Please supply the value of reported MIC for the item `C[C@@](C[C@H]1CN(c2ccc(C#CC3CC3)cc2)C(=O)O1)(C(=O)NO)S(C)(=O)=O`
a: 0.06

q: Please supply the value of reported MIC for the item `CC(C)(O)[C@H]1C[C@H](C#Cc2ccc(N3C[C@H](C[C@](C)(C(=O)NO)S(C)(=O)=O)OC3=O)cc2)C1`
a: 0.5

q: Please supply the value of reported MIC for the item `CC#Cc1ccc(C2=NO[C@@H](C[C@](C)(C(=O)NO)S(C)(=O)=O)C2)cc1`
a: 0.25

q: Please supply the value of reported MIC for the item `CCCc1ccc(N2C[C@H](C[C@](C)(C(=O)NO)S(C)(=O)=O)OC2=O)cc1`
a: 1

###

assay.protocol: Solubility of the compound at pH 9
Type: physicochemical
condition.label: buffer
measurement.label: solubility

q: Please supply the value of reported solubility for the item `C[C@@](C[C@H]1CN(c2ccc(C#CC3CC3)cc2)C(=O)O1)(C(=O)NO)S(C)(=O)=O`
a: > 20 mg/mL

###

assay.protocol: Volume of distribution at steady state in dog at 10 mg/kg, iv
Assay type: ADME, organism-based, Canis lupus familiaris
condition.label: in vivo, read-out: Vdss
measurement.label: Vd (L/kg)
Numeric only. Scale: L/kg

q: Please supply the value of reported Vd for the item `C[C@@](C[C@H]1CN(c2ccc(C#CC3CC3)cc2)C(=O)O1)(C(=O)NO)S(C)(=O)=O`
a: 0.8

###

Test system: Escherichia coli
assay.protocol: Antimicrobial activity against Escherichia coli ATCC 25922 after 20 hrs by CLSI protocol-based microdilution assay
Assay type: functional
condition.label: ATCC 25922, 20 h
measurement.label: log10(MIC) (log10 of the value in µg/mL)
Form field - Quantity: MIC; Unit: µg/mL; Scale: log10

q: Please supply the value of reported log10(MIC) for the item `C[C@@](C[C@H]1CN(c2ccc(C3CC3)cc2)C(=O)O1)(C(=O)NO)S(C)(=O)=O`
a: 1.51

q: Please supply the value of reported log10(MIC) for the item `C[C@@](C[C@H]1CC(c2ccc(Br)cc2)=NO1)(C(=O)NO)S(C)(=O)=O`
a: 1.51

q: Please supply the value of reported log10(MIC) for the item `CC#Cc1ccc(C2=NO[C@@H](C[C@](C)(C(=O)NO)S(C)(=O)=O)C2)cc1`
a: 0.00

q: Please supply the value of reported log10(MIC) for the item `C[C@@](C[C@H]1CN(c2ccc(-c3ccccc3)cn2)C(=O)O1)(C(=O)NO)S(C)(=O)=O`
a: 0.30

q: Please supply the value of reported log10(MIC) for the item `C[C@@H](O)[C@H](NC(=O)c1ccc(C#Cc2ccc(CN3CCOCC3)cc2)cc1)C(=O)NO`
a: -0.90

q: Please supply the value of reported log10(MIC) for the item `CC(C)(O)[C@H]1C[C@H](C#Cc2ccc(N3C[C@H](C[C@](C)(C(=O)NO)S(C)(=O)=O)OC3=O)cc2)C1`
a: -0.30

q: Please supply the value of reported log10(MIC) for the item `C[C@@](C[C@H]1CN(c2ccc(-c3ccccc3)cc2)C(=O)O1)(C(=O)NO)S(C)(=O)=O`
a: -0.60

q: Please supply the value of reported log10(MIC) for the item `CC#Cc1ccc(N2C[C@H](C[C@](C)(C(=O)NO)S(C)(=O)=O)OC2=O)cc1`
a: 0.30

q: Please supply the value of reported log10(MIC) for the item `C/C=C/c1ccc(N2C[C@H](C[C@](C)(C(=O)NO)S(C)(=O)=O)OC2=O)cc1`
a: 0.60

q: Please supply the value of reported log10(MIC) for the item `C[C@@](C[C@H]1CN(c2ccc(C#CC3CC3)cc2)C(=O)O1)(C(=O)NO)S(C)(=O)=O`
a: -0.90
